Origin of measurements: patent US20120088769A1

Recorded solubility at 1.5 min values for a group of compounds are listed next.
- ASSAY TEXT: Solubility assessment in water (aqueous solubility)
- Assay type: physicochemical
- SETUP CONDITIONS: thermodynamic from solid, HCl salt
Give the number; mg/mL is assumed, so skip it.

Known results for compounds:
CN1CCN(CCNC(=O)NC2CCN(S(=O)(=O)c3cc(C#N)ccc3Oc3cc(Cl)cc(Cl)c3)CC2)CC1 [Cmpd 8] : 1.4
CCN1CCN(S(=O)(=O)c2cc([N+](=O)[O-])ccc2Oc2cc(Cl)cc(Cl)c2)CC1 [Cmpd 6] : 1.59
CC(C)N1CCN(S(=O)(=O)c2cc(C#N)ccc2Sc2cc(Cl)cc(Cl)c2)CC1 [Cmpd 4] : 0.8

--- query ---
Problem: Name the recorded solubility at 1.5 min for N#Cc1ccc(Oc2cc(Cl)cc(Cl)c2)c(S(=O)(=O)N2CCC(NC(=O)NCCN3CCOCC3)CC2)c1 [Cmpd 7] .
Solution: 3.67

* * *

- ASSAY TEXT: Solubility assessment in water (aqueous solubility)
- Format: physicochemical
- SETUP CONDITIONS: thermodynamic from solid, Mesylate salt
Recorded solubility at 1.5 min values for a group of compounds are listed next.
Give the number; µg/mL is assumed, so skip it.

Known results for compounds:
CCN1CCN(S(=O)(=O)c2cc([N+](=O)[O-])ccc2Oc2cc(Cl)cc(Cl)c2)CC1 : 10000
CCN1CCN(S(=O)(=O)c2cc(C#N)ccc2Oc2cc(Cl)cc(Cl)c2)CC1 : 270
CC(C)N1CCN(S(=O)(=O)c2cc(C#N)ccc2Sc2cc(Cl)cc(Cl)c2)CC1 : 23000

--- query ---
Problem: Name the recorded solubility at 1.5 min for N#Cc1ccc(Sc2cc(Cl)cc(Cl)c2)c(S(=O)(=O)N2CCN(C3CCCC3)CC2)c1 .
Solution: 230

* * *

Recorded solubility at 1.5 min values for a group of compounds are listed next.
- ASSAY TEXT: Solubility assessment in water (aqueous solubility)
- Type: physicochemical
- SETUP CONDITIONS: thermodynamic from solid, HCl salt
Give the number; µg/mL is assumed, so skip it.

Problem: Name the recorded solubility at 1.5 min for CCN1CCN(S(=O)(=O)c2cc(C#N)ccc2Oc2cc(C)cc(C)c2)CC1 .
Solution: 330

Problem: Name the recorded solubility at 1.5 min for CN1CCN(S(=O)(=O)c2cc(C#N)ccc2Sc2cc(Cl)cc(Cl)c2)CC1 .
Solution: 1360

Problem: Name the recorded solubility at 1.5 min for N#Cc1ccc(Sc2cc(Cl)cc(Cl)c2)c(S(=O)(=O)N2CCN(C3CCCC3)CC2)c1 .
Solution: 110

* * *

- ASSAY TEXT: Solubility assessment in water (aqueous solubility)
- Assay type: physicochemical
- SETUP CONDITIONS: thermodynamic from solid, Mesylate salt
Recorded solubility at 1.5 min values for a group of compounds are listed next.
Give the number; µg/mL is assumed, so skip it.

Known results for compounds:
CCN1CCN(S(=O)(=O)c2cc(C#N)ccc2Oc2cc(C)cc(C)c2)CC1 [Cmpd 3] : 200
CN1CCN(S(=O)(=O)c2cc(C#N)ccc2Sc2cc(Cl)cc(Cl)c2)CC1 [Cmpd 1] : 7260
CN1CCN(CCNC(=O)NC2CCN(S(=O)(=O)c3cc(C#N)ccc3Oc3cc(Cl)cc(Cl)c3)CC2)CC1 [Cmpd 8] : 10900

--- query ---
Problem: Name the recorded solubility at 1.5 min for N#Cc1ccc(Oc2cc(Cl)cc(Cl)c2)c(S(=O)(=O)N2CCC(NC(=O)NCCN3CCOCC3)CC2)c1 [Cmpd 7] .
Solution: 3810

* * *

- ASSAY TEXT: Solubility assessment in water (aqueous solubility)
- Assay type: physicochemical
- SETUP CONDITIONS: thermodynamic from solid, Sulfate salt
PROPERTY LABEL: solubility at 1.5 min (µg/mL)
Give the number; µg/mL is assumed, so skip it.

CN1CCN(CCNC(=O)NC2CCN(S(=O)(=O)c3cc(C#N)ccc3Oc3cc(Cl)cc(Cl)c3)CC2)CC1 [Cmpd 8] : 580
N#Cc1ccc(Oc2cc(Cl)cc(Cl)c2)c(S(=O)(=O)N2CCC(NC(=O)NCCN3CCOCC3)CC2)c1 [Cmpd 7] : 2350
CN1CCN(S(=O)(=O)c2cc(C#N)ccc2Sc2cc(Cl)cc(Cl)c2)CC1 [Cmpd 1] : 790
N#Cc1ccc(Sc2cc(Cl)cc(Cl)c2)c(S(=O)(=O)N2CCN(C3CCCC3)CC2)c1 [Cmpd 5] : 1200
CCN1CCN(S(=O)(=O)c2cc([N+](=O)[O-])ccc2Oc2cc(Cl)cc(Cl)c2)CC1 [Cmpd 6] : 600

Problem: Name the recorded solubility at 1.5 min for CC(C)N1CCN(S(=O)(=O)c2cc(C#N)ccc2Sc2cc(Cl)cc(Cl)c2)CC1 [Cmpd 4] .
Solution: 1100

Problem: Name the recorded solubility at 1.5 min for CCN1CCN(S(=O)(=O)c2cc(C#N)ccc2Oc2cc(Cl)cc(Cl)c2)CC1 [Cmpd 2] .
Solution: 230

* * *

- ASSAY TEXT: Solubility assessment in water (aqueous solubility)
- Type: physicochemical
- SETUP CONDITIONS: thermodynamic from solid, Phosphate salt
Recorded log10(solubility at 1.5 min) values for a group of molecules are listed next.
Kindly note that the scale is log10 and the underlying solubility at 1.5 min is in µg/mL.

Problem: Name the recorded log10(solubility at 1.5 min) for N#Cc1ccc(Oc2cc(Cl)cc(Cl)c2)c(S(=O)(=O)N2CCC(NC(=O)NCCN3CCOCC3)CC2)c1 .
Solution: 3.46

Problem: Name the recorded log10(solubility at 1.5 min) for CN1CCN(S(=O)(=O)c2cc(C#N)ccc2Sc2cc(Cl)cc(Cl)c2)CC1 .
Solution: 3.23

Problem: Name the recorded log10(solubility at 1.5 min) for CCN1CCN(S(=O)(=O)c2cc(C#N)ccc2Oc2cc(Cl)cc(Cl)c2)CC1 .
Solution: 2.08

Problem: Name the recorded log10(solubility at 1.5 min) for N#Cc1ccc(Sc2cc(Cl)cc(Cl)c2)c(S(=O)(=O)N2CCN(C3CCCC3)CC2)c1 .
Solution: 4.00

Problem: Name the recorded log10(solubility at 1.5 min) for CCN1CCN(S(=O)(=O)c2cc([N+](=O)[O-])ccc2Oc2cc(Cl)cc(Cl)c2)CC1 .
Solution: 3.22

Problem: Name the recorded log10(solubility at 1.5 min) for CN1CCN(CCNC(=O)NC2CCN(S(=O)(=O)c3cc(C#N)ccc3Oc3cc(Cl)cc(Cl)c3)CC2)CC1 .
Solution: 3.38

* * *

Recorded solubility at 1.5 min values for a group of molecules are listed next.
- ASSAY TEXT: Solubility assessment in water (aqueous solubility)
- Type: physicochemical
- SETUP CONDITIONS: thermodynamic from solid, Camsylate salt
Give the number; µg/mL is assumed, so skip it.

Known results for molecules:
CC(C)N1CCN(S(=O)(=O)c2cc(C#N)ccc2Sc2cc(Cl)cc(Cl)c2)CC1 : 240
CCN1CCN(S(=O)(=O)c2cc(C#N)ccc2Oc2cc(C)cc(C)c2)CC1 : 80

Problem: Name the recorded solubility at 1.5 min for CCN1CCN(S(=O)(=O)c2cc([N+](=O)[O-])ccc2Oc2cc(Cl)cc(Cl)c2)CC1 .
Solution: 250
